target: AR protein in VCaP cells (Homo sapiens)
Construct: endogenous in cells; host or cells: VCaP cells
test-protocol: VCAP AR Degradation Assay
Format: cell-based
details: 24 h, AR ELISA, lowest measured AR level normalized to DMSO control
Structures can show the parent of a compound that is named as a salt.

# molecule, Y
data = [
    ("CC1(C)C(=O)N(c2ccc(C#N)c(C(F)(F)F)c2)C(=S)N1[C@H]1CC[C@H](OCCN2CCN(CC(=O)Nc3cccc(NC4CCC(=O)NC4=O)c3)[C@H](C(F)(F)F)C2)CC1 (stereo partly shown)", "*** (25%<Y<50%)"),
    ("C[C@@H]1CN(CCO[C@H]2CC[C@H](N3C(=S)N(c4ccc(C#N)c(C(F)(F)F)c4)C(=O)C3(C)C)CC2)C[C@H](C)N1CC(=O)Nc1cccc(NC2CCC(=O)NC2=O)c1 (stereo partly shown)", "*** (25%<Y<50%)"),
    ("C[C@@H]1CN(CCC[C@H]2CC[C@H](N3C(=S)N(c4ccc(C#N)c(C(F)(F)F)c4)C(=O)C3(C)C)CC2)C[C@H](C)N1CC(=O)Nc1cc(F)cc(NC2CCC(=O)NC2=O)c1 (stereo partly shown)", "* (0<Y≤15%)"),
    ("C[C@@H]1CN(CCO[C@H]2CC[C@H](N3C(=S)N(c4ccc(C#N)c(C(F)(F)F)c4)C(=O)C3(C)C)CC2)C[C@H](C)N1CC(=O)Nc1cccc(N[C@@H]2CCC(=O)NC2=O)c1 [Cmpd 3, hydrochloride]", "*** (25%<Y<50%)"),
    ("CC1(C)C(=O)N(c2cnc(C#N)c(C(F)(F)F)c2)C(=S)N1[C@H]1CC[C@H](CCCN2CCN(CC(=O)Nc3cccc(NC4CCC(=O)NC4=O)c3)[C@@H](C(F)(F)F)C2)CC1 (stereo partly shown)", "* (0<Y≤15%)"),
    ("C[C@@H]1C[C@H](OCCC[C@H]2CC[C@H](N3C(=S)N(c4ccc(C#N)c(C(F)(F)F)c4)C(=O)C3(C)C)CC2)C[C@H](C)N1CC(=O)Nc1cccc(NC2CCC(=O)NC2=O)c1 (stereo partly shown)", "** (15%<Y≤20%)"),
    ("CC1(C)C(=O)N(c2ccc(C#N)c(C(F)(F)F)c2)C(=S)N1[C@H]1CC[C@H](OCCN2CCN(CC(=O)Nc3cc(C#N)cc(NC4CCC(=O)NC4=O)c3)[C@@H](C(F)(F)F)C2)CC1 (stereo partly shown)", "*** (25%<Y<50%)"),
    ("C[C@@H]1C[C@H](OCC[C@H]2CC[C@H](N3C(=S)N(c4ccc(C#N)c(C(F)(F)F)c4)C(=O)C3(C)C)CC2)C[C@H](C)N1CC(=O)Nc1cccc(NC2CCC(=O)NC2=O)c1 (stereo partly shown)", "** (15%<Y≤20%)"),
    ("CC1(C)C(=O)N(c2cnc(C#N)c(C(F)(F)F)c2)C(=S)N1[C@H]1CC[C@H](OCCN2CCN(CC(=O)Nc3cccc(NC4CCC(=O)NC4=O)c3)[C@@H](C(F)(F)F)C2)CC1 (stereo partly shown) [Cmpd 20, hydrochloride]", "* (0<Y≤15%)"),
    ("C[C@@H]1CN(CCCO[C@H]2CC[C@H](N3C(=S)N(c4ccc(C#N)c(C(F)(F)F)c4)C(=O)C3(C)C)CC2)C[C@H](C)N1CC(=O)Nc1cccc(NC2CCC(=O)NC2=O)c1 (stereo partly shown) [Cmpd 12, hydrochloride]", "*** (25%<Y<50%)"),
]

----------
target: AR protein in VCaP cells (Homo sapiens, UniProt P10275)
Construct: endogenous in cells; host or cells: VCaP cells
Sequence (P10275 whole entry): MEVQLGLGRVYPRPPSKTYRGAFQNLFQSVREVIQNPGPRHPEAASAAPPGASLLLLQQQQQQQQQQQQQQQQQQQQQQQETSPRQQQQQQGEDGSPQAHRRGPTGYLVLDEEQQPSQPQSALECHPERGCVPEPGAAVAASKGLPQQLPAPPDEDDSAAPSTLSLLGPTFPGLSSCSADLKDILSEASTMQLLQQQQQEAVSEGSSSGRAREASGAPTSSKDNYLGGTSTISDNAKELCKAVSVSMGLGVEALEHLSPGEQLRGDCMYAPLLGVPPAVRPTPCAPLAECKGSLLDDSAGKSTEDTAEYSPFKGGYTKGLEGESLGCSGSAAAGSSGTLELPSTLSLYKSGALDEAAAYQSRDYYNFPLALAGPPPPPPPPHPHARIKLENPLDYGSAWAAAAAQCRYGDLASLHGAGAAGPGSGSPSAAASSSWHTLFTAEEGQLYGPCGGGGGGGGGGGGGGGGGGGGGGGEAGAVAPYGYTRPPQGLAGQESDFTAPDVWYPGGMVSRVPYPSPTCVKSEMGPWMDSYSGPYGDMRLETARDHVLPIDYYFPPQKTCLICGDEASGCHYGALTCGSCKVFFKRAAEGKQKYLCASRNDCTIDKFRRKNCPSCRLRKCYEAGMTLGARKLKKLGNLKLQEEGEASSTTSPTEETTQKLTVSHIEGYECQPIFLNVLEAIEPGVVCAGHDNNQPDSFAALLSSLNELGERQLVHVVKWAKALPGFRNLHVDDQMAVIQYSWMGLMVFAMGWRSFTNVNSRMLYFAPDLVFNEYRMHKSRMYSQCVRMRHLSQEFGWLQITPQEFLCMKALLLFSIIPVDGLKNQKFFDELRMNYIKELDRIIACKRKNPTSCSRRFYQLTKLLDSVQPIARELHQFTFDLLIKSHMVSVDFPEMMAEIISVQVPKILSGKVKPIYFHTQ
test-protocol: VCAP AR Degradation Assay
Format: cell-based
details: 24 h, AR ELISA, lowest measured AR level normalized to DMSO control
Structures can show the parent of a compound that is named as a salt.

# molecule, Y
measured = [
    ("CC1(C)C(=O)N(c2ccc(C#N)c(C(F)(F)F)c2)C(=S)N1[C@H]1CC[C@H](OCCN2CCN(CC(=O)Nc3cc(F)cc(NC4CCC(=O)NC4=O)c3)[C@@H](C(F)(F)F)C2)CC1 (stereo partly shown)", "* (0<Y≤15%)"),
    ("C[C@@H]1C[C@@H](CCO[C@H]2CC[C@H](N3C(=S)N(c4cnc(C#N)c(C(F)(F)F)c4)C(=O)C3(C)C)CC2)C[C@H](C)N1CC(=O)Nc1cccc(NC2CCC(=O)NC2=O)c1 (stereo partly shown)", "* (0<Y≤15%)"),
    ("CC1(C)C(=O)N(c2ccc(C#N)c(C(F)(F)F)c2)C(=S)N1[C@H]1CC[C@H](OCCN2CCN(CC(=O)Nc3cccc(NC4CCC(=O)NC4=O)c3)[C@@H](C(F)(F)F)C2)CC1 (stereo partly shown) [Cmpd 19, hydrochloride]", "* (0<Y≤15%)"),
]

The measurements presented in this section are drawn from patent US12103920B2.
